Data credit: paper PMC8599909

# testSystem: T1, PUS7(Δ1-98) (Homo sapiens, UniProt Q96PZ0 99-661, del1-98)
# T1 sequence: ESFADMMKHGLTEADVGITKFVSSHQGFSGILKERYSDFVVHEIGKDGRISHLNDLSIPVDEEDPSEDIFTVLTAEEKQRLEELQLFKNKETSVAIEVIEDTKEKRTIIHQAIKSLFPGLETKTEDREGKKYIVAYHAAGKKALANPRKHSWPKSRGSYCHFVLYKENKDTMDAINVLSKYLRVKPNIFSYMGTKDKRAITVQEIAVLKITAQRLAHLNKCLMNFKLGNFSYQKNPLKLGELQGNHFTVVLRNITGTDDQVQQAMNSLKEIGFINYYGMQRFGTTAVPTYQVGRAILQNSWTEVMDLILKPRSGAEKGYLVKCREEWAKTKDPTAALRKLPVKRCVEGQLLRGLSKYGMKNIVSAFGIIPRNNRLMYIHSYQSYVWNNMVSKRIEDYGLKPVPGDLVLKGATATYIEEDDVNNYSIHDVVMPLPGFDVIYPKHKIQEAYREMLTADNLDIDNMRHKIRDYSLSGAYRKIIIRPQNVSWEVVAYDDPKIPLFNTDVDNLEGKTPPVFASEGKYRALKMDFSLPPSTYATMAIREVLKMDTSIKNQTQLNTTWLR
# testDescription: filter binding
recordedEndpoint: pKd
For clarity, pKd is expressed as the negative log10 of concentration in mol/L.

Given the binder GGGGCCCCAUGGUGUAAUGG (ssRNA) [18mer-cy-tRNAGln] , write its reported pKd. 6.57
